Tested on: HCT-116 colon
Test: NCI tumour cell line growth inhibition, 48 h
Binary classification by TGI, with 3 µM as an inclusive lower bound for Met; all other cases are Not met.

Check the entry `CCNCCNc1cc(-c2ccc(C(F)(F)F)cc2)c(C#N)c2nc3ccccc3n12` : does TGI equal or exceed 3 µM?
Not met

Kindly determine if TGI recorded for `CN=C(SC)N(C)c1nc(=[N+](C)C)ss1` is above or exactly 3 µM.
Met

Could you verify whether the entry CCCCC(CC)COC(=O)C[N+](C)(C)CCOC(c1ccccc1)c1ccccc1 (configuration not stated) shows TGI of no less than 3 µM?
Met

Test whether the compound `COc1c(C(=O)/C=C/c2ccccc2)c(O)cc2occc12` records TGI of 3 µM or higher.
Met

For this compound, is measured TGI 3 µM or higher? `CCOC(=O)C(=O)Nc1ccccc1CC`
Met

Record CCCCCCCCCCCCCCCC(=O)OCC(C[As](=O)(O)O)OC(=O)CCCCCCCCCCCCCCC (configuration not stated) ; criterion: TGI no lower than 3 µM. Met?
Met

Given COc1cccc2c1C(=O)c1c(O)c3c(c(O)c1C2=O)CC(O)(C(=O)CO)CC3OC1CC(N2CCOCC2C#N)C(O)C(C)O1 (configuration not stated) , state whether its TGI is at least 3 µM.
Met

Tell me whether TGI is at least 3 µM here: `O=[N+]([O-])c1ccc(S(=O)(=O)n2c3ccc(Br)cc3c3nc4ccccc4nc32)cc1`
Met

Confirm if TGI reported for the compound `c1cnn(CN(Cn2cccn2)Cn2cccn2)c1` is 3 µM or above.
Met

Could you tell me if the measured TGI of `CCOC(=O)c1cn2c(n1)sc1cc(Cl)ccc12` reaches 3 µM or more?
Met

Say whether `CC(=O)O[C@H]1C(=O)[C@@]2(C)[C@H]([C@H](OC(=O)c3ccoc3)[C@]3(O)C[C@H](OC(=O)[C@H](O)[C@@H](NC(=O)c4ccccc4)c4ccccc4)C(C)=C1C3(C)C)[C@]1(OC(C)=O)CO[C@@H]1C[C@@H]2O` shows TGI of 3 µM or more.
Not met

Identify whether the reported TGI of the following compound is 3 µM or greater: CCCCNC1CCCCC[C@H]1O (some centres not stated)
Met

###

Tested on: UACC-257 melanoma
Assay: NCI tumour cell line growth inhibition, 48 h
quantity: TGI

Quick one: give measured TGI for `CN(C)CCNc1ccc(CO)c2oc3ccc(O)cc3c(=O)c12`
17.4 µM

Write down TGI measured for item `COCc1nc2c(OC)c(-c3nc4nc(N5CCN(C)CC5)ccc4[nH]3)cc(OC)c2n1C`
36.4 µM

Write down TGI measured for item Nc1nc([O-])c2c(n1)[n+](C1OC(CO)C(O)C1O)cn2CCO (centres undefined)
> 100 µM

For `COc1cc(Br)cc2cc(-c3cn4c(n3)sc3ccccc34)c(=O)oc12` , write its TGI.
> 75 µM

Give recorded TGI. `COc1ccc(-c2cc(-c3cc(C)cc(Br)c3O)no2)cc1`
> 100 µM

Complete the entry with TGI for `CC(=O)[C@@H](C)C(=O)N1C(=O)OC[C@@]12[C@@H]1CC[C@@H](C1)C2(C)C`
> 100 µM

Report TGI, nothing else, for this molecule: `COc1ccc(S(=O)(=O)c2ccccc2[N+](=O)[O-])cc1`
> 100 µM

Please list TGI recorded for the molecule `Clc1ccc(C[P+](c2ccccc2)(c2ccccc2)c2ccccc2)c(Cl)c1`
7.64 µM

Answer with reported TGI of CC1CC2=C(S(=O)(=O)c3ccccc3)CC(S(=O)(=O)c3ccccc3)(S(=O)(=O)c3ccccc3)CC21 (centres undefined)
> 100 µM

Consider the molecule CCOP(=O)(OCC)C(c1ccc(F)cc1)N(C(=O)NC(F)(F)F)c1cccc(C(F)(F)F)c1 (centres undefined) . State its measured TGI.
> 100 µM

In one line, give reported TGI of the entry `N#Cc1[nH]c(=O)n(-c2ccccc2)c1N` .
> 10 µM

Fill in TGI for record `C=C(C)[C@@H]1CC[C@]2(CO)CC[C@]3(C)[C@H](CC[C@@H]4[C@@]5(C)C=C(C#N)C(=O)C(C)(C)[C@@H]5CC[C@]43C)[C@@H]12`
3.04 µM

Assign TGI to the following record: `CC(=O)Oc1ccc2cc(-c3ccccc3OC(C)=O)c(=O)oc2c1`
> 100 µM

Entry `CCOC(=O)/C(C)=C(/O)C(=O)OCC` needs its TGI filled in; supply it.
> 100 µM

Return TGI for the following molecule: O=C1C2C3C=C4c5ccccc5N(c5ccccc5)C4(C2C(=O)N1c1ccc([N+](=O)[O-])cc1)[C@H]1C(=O)N(c2ccc([N+](=O)[O-])cc2)C(=O)[C@@H]31 (some centres undefined)
> 100 µM

Give the measured TGI for COC(=O)C(Cc1nc2ccccc2[nH]c1=O)C(NO)C(=O)Nc1c(Cl)cc([N+](=O)[O-])cc1Cl (centres undefined)
> 100 µM

Fill in reported TGI for this entry: `CCCCCCc1cc(C(=O)Nc2ccc(Cl)cc2)nc(=S)[nH]1`
> 100 µM

Provide measured TGI value, entry: CCOC(=O)CCC(=O)C1c2cccc(O)c2C(=O)c2c(O)cc(C)cc21 (centres undefined)
2.8 µM

// fetch TGI given entry `O=c1cc(N2CCCC2)[nH]c(=O)n1-c1cccc(Cl)c1`
> 100 µM

###

For each record, write down the corresponding TGI.
System: UACC-257 melanoma
Test: NCI tumour cell line growth inhibition, 48 h
Give the number; µM is assumed, so skip it.

# return recorded TGI for entry C[N+]1(C)CCc2cc(O)c(O)cc2C1Cc1ccc(O)c(O)c1 (centres undefined)
86.9

Complete the entry with TGI for `COC1=C(OC)C(=O)C(Cc2c(C)nc3sccn23)=C(C)C1=O`
20.7

Specify reported TGI for the compound shown: `CC1(C)C(=O)/C(=C\c2cccnc2)C[C@]2(C)[C@H]3CC[C@@H]4[C@H]5[C@H](C(=O)/C=C/c6cccnc6)CC[C@]5(C(=O)O)CC[C@@]4(C)[C@]3(C)CC[C@@H]12`
4.25

Dear colleague, please send me the reported TGI for `Nc1nc(Nc2cccnc2)sc1C(=O)c1ccccc1F` when you can.
40.1

Given the compound `C=C1C(=O)O[C@H]2[C@H]1CC/C(COC(=O)NCCCCNC(=O)OC/C1=C/CC[C@@]3(C)O[C@H]3[C@H]3OC(=O)C(=C)[C@@H]3CC1)=C\CC[C@@]1(C)O[C@@H]21` , write its reported TGI.
4.99

###

For each entry below, report its TGI value.
System: LOX IMVI melanoma
Assay: NCI tumour cell line growth inhibition, 48 h

Report TGI, nothing else, for this molecule: `CCOC(=O)Cc1nc2cc(F)c(F)cc2[nH]c1=O`
> 100 µM

// fetch TGI given entry `COC(=O)C12CC3CC(CC(C(=O)O)(C3)C1)C2`
> 100 µM

Specify measured TGI for `CN=C(SC)N(C)c1nc(=[N+](C)C)ss1` .
> 100 µM

Supply TGI value. Item: `CC(=O)O[C@H]1C(=O)[C@@]2(C)[C@H]([C@H](OC(=O)c3ccoc3)[C@]3(O)C[C@H](OC(=O)[C@H](O)[C@@H](NC(=O)c4ccccc4)c4ccccc4)C(C)=C1C3(C)C)[C@]1(OC(C)=O)CO[C@@H]1C[C@@H]2O`
> 12.5 µM

Please supply the value of reported TGI for the item `COc1ccc(S(=O)(=O)c2ccccc2[N+](=O)[O-])cc1`
> 100 µM

Recall and state the measured TGI for `COc1cc2ncnc(-n3ncc4cc(NC(=O)Nc5ccccc5)ccc43)c2cc1OC` .
2.75 µM

Recall and state the measured TGI for `CC1=CC(C)(C)N=C2SC(c3ccc(N)cc3)=NN12` .
> 100 µM

Quickly give me recorded TGI for `COC(=O)Nc1nc2ccc(S(=O)(=O)SC)cc2[nH]1`
22.1 µM

Fill in TGI for record `COc1ccc2[nH]c3c4[nH]c5ccc(OC)cc5c4c4c(c3c2c1)C(=O)NC4=O`
> 25 µM

Name the recorded TGI of the molecule listed here: CCOC(=O)N[C@@H]1C(CC(=O)OC)O[C@H]2OC(C)(C)O[C@H]21 (stereo partly drawn)
> 100 µM

Answer with the recorded TGI of `NS(=O)(=O)c1ccc(-c2ccc3c(NC(=O)C4CC4)n[nH]c3c2)cc1` only.
> 25 µM

Quickly give me recorded TGI for `CCOC(=O)Cn1c(=O)ccn(COCCO)c1=O`
> 100 µM

Check the records and state TGI for `c1cnn(CN(Cn2cccn2)Cn2cccn2)c1`
> 100 µM

Return value of TGI for input `O=C1c2ccccc2C(=O)N1CCCCNOCCCN1C(=O)c2ccccc2C1=O` , no commentary.
> 100 µM

Consider the molecule `C/C(=N/NC(N)=S)c1ccc[nH]1` . State its measured TGI.
> 100 µM

Specify measured TGI for `Cc1ccc2c3c1O[C@H]1c4[nH]c5ccccc5c4C[C@@]4(O)[C@@H](C2)N(CC2CC2)CC[C@]314` .
33.1 µM

Give the reported TGI for this molecule. `CCC(=O)Oc1ccc2c(c1)c(=O)c1c(NCCCN(C)C)ccc3nnn2c31`
2.88 µM

Determine from records and report TGI for `Oc1c(N2CCOCC2)cc(-c2cc(N3CCOCC3)c(O)c3ccccc23)c2ccccc12`
7.09 µM

Give TGI for `C=C(C)[C@@H]1CC[C@]2(CO)CC[C@]3(C)[C@H](CC[C@@H]4[C@@]5(C)C=C(C#N)C(=O)C(C)(C)[C@@H]5CC[C@]43C)[C@@H]12`
2.68 µM

Give the measured TGI for COC(=O)C(CC(=O)Nc1ccc(C)cc1)C(=O)C(=O)Nc1c(C(C)C)cccc1C(C)C (stereo not drawn)
> 100 µM

Provide only the value of recorded TGI for `CCOC(=O)/C(C)=C(/O)C(=O)OCC`
> 100 µM

State its TGI for this molecule: `Cc1ccc(N=C/C=C(\Nc2ccc(C)cc2)c2ccc(Cl)cc2)cc1`
> 100 µM

Give reported TGI value for `COc1c(C(=O)/C=C/c2ccccc2)c(O)cc2occc12`
3.31 µM

Query TGI for CCOc1ncn(-c2ccc(NC(=S)NC3OC(CO)C(O)C(O)C3O)cc2)n1 (stereo not drawn)
> 100 µM

Supply TGI value. Item: CC(=O)O[C@H]1C(=O)[C@@]2(C)C(C(OC(=O)c3ccccc3)[C@]3(O)CC(OC(=O)C(O)C(NC(=O)c4ccc(C(F)(F)F)cc4)c4ccccc4)C(C)=C1C3(C)C)[C@]1(OC(C)=O)CO[C@@H]1C[C@@H]2O (stereo partly drawn)
6.43 µM

// Input: `C=C1C(=O)O[C@H]2[C@H]1CC/C(COC(=O)NCCCCNC(=O)OC/C1=C/CC[C@@]3(C)O[C@H]3[C@H]3OC(=O)C(=C)[C@@H]3CC1)=C\CC[C@@]1(C)O[C@@H]21` . Output its TGI only.
1.92 µM

Identify measured TGI corresponding to `CC(=O)Nc1ccc(/C=C/c2ccc(NC(=O)Nc3ccc(/C=C/c4ccc(NC(C)=O)cc4S(=O)(=O)O)c(S(=O)(=O)O)c3)cc2S(=O)(=O)O)c(S(=O)(=O)O)c1`
> 100 µM

Assign TGI to the following record: `Cc1[nH]c(=O)nc2[nH][nH]c(=O)c12`
> 100 µM

Report measured TGI; entry is `CC(C)OC(=O)/C=C/C(=O)O/C=C/[N+](=O)[O-]`
32.9 µM

Respond only with TGI recorded for COC(=O)c1cc2c(cc1CC(Cc1ccc3c(c1)CCCC3)C(=O)OC)CCCC2 (stereo not drawn)
> 100 µM

State its TGI: `CC(=O)ONC(C(=O)C(C)(C)C)C(=O)C(C)(C)C`
> 100 µM

Output measured TGI for this item: `CN1CCc2nc(N)nc(-c3nc(N)nc4c3CN(C)CC4)c2C1`
> 100 µM

Let me know recorded TGI for `COc1cc2c3c(n(CCCN)c(=O)c2cc1OC)-c1ccc(C#N)cc1C3=O` , thanks.
30 µM

Please indicate TGI recorded for `COCC[C@H]1CCC/C=C/[C@@H]2C[C@H](O)C[C@H]2[C@H](O)/C=C/C(=O)O1`
0.179 µM

Tell me TGI reported for `O=C(/C=C/c1ccc(Cl)c(Cl)c1)c1ccc2ccccc2c1`
> 100 µM

Return TGI for the following molecule: `O=C(CC(=O)n1nc(-c2ccccc2)c(N=Nc2ccc(Cl)cc2)c1-c1ccccc1)Nc1ccc(Cl)cc1`
> 56.9 µM

Supply measured TGI of `COc1cc(/C=C/c2ccc(OC)c(O)c2)cc(OC)c1` in your reply.
34.2 µM

Identify TGI associated with the molecule `O=C1NC(=S)NC(=O)C1C(c1ccc(O)cc1)C1C(=O)NC(=S)NC1=O`
> 100 µM
